# Test system: CAL-72 (Osteosarcoma)
# run.description: Bliss excess, mean over the matrix (fraction); higher = more synergy
result.type: Bliss excess
Give the figure only, with no unit attached.

q: Fill in: Bliss excess of Cc1cc2ncnn2cc1Nc1ncc2c(n1)n(C1CCOCC1)c(=O)n2C [AZD7648] + O=C(c1cc(Cc2n[nH]c(=O)c3ccccc23)ccc1F)N1CCN(C(=O)C2CC2)CC1 [Olaparib] (first compound max 10 µM, 7x7, partner max 10 µM) is ___
a: -0.0093

q: Fill in: Bliss excess of C[C@@H](Oc1cc(-c2cnn(C3CCNCC3)c2)cnc1N)c1c(Cl)ccc(F)c1Cl [Crizotinib] + CC1=C(C(=CC=C1)Cl)NC(=O)C2=CN=C(S2)NC3=CC(=NC(=N3)C)N4CCN(CC4)CCO [Dasatinib] (first compound max 10 µM, 7x7, partner max 2 µM) is ___
a: 0.0078

q: Fill in: Bliss excess of CN(CCO)CC[C@H](CSc1ccccc1)Nc1ccc(S(=O)(=O)NC(=O)c2ccc(N3CCC([C@@H](O)c4ccccc4-c4ccc(Cl)cc4)CC3)cc2)cc1S(=O)(=O)C(F)(F)F [AZD4320] + Nc1ccn([C@@H]2O[C@H](CO)[C@@H](O)C2(F)F)c(=O)n1 [Gemcitabine] (first compound max 1 µM, 7x7, partner max 0.3 µM) is ___
a: 0.129

====

# Tested on: CAL-72 (Osteosarcoma)
# run.description: Bliss excess, mean over the matrix (fraction); higher = more synergy
Please respond with reported Bliss excess for every item in the list.
Give the figure only, with no unit attached.

q: Fill in: Bliss excess of Cc1cc2ncnn2cc1Nc1ncc2c(n1)n(C1CCOCC1)c(=O)n2C [AZD7648] + C=CCn1c(=O)c2cnc(Nc3ccc(N4CCN(C)CC4)cc3)nc2n1-c1cccc(C(C)(C)O)n1 [AZD1775] (first compound max 10 µM, partner max 1 µM) is ___
a: -0.0194

q: Fill in: Bliss excess of C[C@@H]1COCCN1c1cc(C2([S@](C)(=N)=O)CC2)nc(-c2ccnc3[nH]ccc23)n1 [AZD6738] + C1CC(C1)(C(=O)[O-])C(=O)[O-].N.N.[Pt+2] [Carboplatin] (first compound max 10 µM, 7x7, partner max 10 µM) is ___
a: -0.063

====

# Test system: BE-13 (T-Lymphoblastic Leukemia)
# run.description: Bliss excess, mean over the matrix (fraction); higher = more synergy
Please respond with reported Bliss excess for every item in the list.

q: Fill in: Bliss excess of CC1(C)CCC(CN2CCN(c3ccc(C(=O)NS(=O)(=O)c4ccc(NCC5CCOCC5)c([N+](=O)[O-])c4)c(Oc4cnc5[nH]ccc5c4)c3)CC2)=C(c2ccc(Cl)cc2)C1 [Venetoclax] + C1CN(CCC1(C(=O)N[C@@H](CCO)C2=CC=C(C=C2)Cl)N)C3=NC=NC4=C3C=CN4 [Capivasertib] (first compound max 1 µM, 7x7, partner max 3 µM) is ___
a: -0.0684

q: Fill in: Bliss excess of COc1nnc2ccc(N3CCC(c4ccc(OCCN5CCN(C)C(=O)[C@H]5C)cc4)CC3)nn12 [AZD5153] + CC1(C)CCC(CN2CCN(c3ccc(C(=O)NS(=O)(=O)c4ccc(NCC5CCOCC5)c([N+](=O)[O-])c4)c(Oc4cnc5[nH]ccc5c4)c3)CC2)=C(c2ccc(Cl)cc2)C1 [Venetoclax] (first compound max 1 µM, 7x7, partner max 1 µM) is ___
a: -0.0428

====

# System: EW-11 (Ewing's Sarcoma)
# run.description: Bliss excess, mean over the matrix (fraction); higher = more synergy
Label not satisfied if Bliss excess falls below -0.006; label satisfied in every other case.

q: Bliss excess >= -0.006 for CC(=O)c1c(C)c2cnc(Nc3ccc(N4CCNCC4)cn3)nc2n(C2CCCC2)c1=O [Palbociclib] + CC1(C)CCC(CN2CCN(c3ccc(C(=O)NS(=O)(=O)c4ccc(NCC5CCOCC5)c([N+](=O)[O-])c4)c(Oc4cnc5[nH]ccc5c4)c3)CC2)=C(c2ccc(Cl)cc2)C1 [Venetoclax] (first compound max 10 µM, 7x7, partner max 1 µM) ?
a: not satisfied

q: Bliss excess >= -0.006 for CC1(C)CCC(CN2CCN(c3ccc(C(=O)NS(=O)(=O)c4ccc(NCC5CCOCC5)c([N+](=O)[O-])c4)c(Oc4cnc5[nH]ccc5c4)c3)CC2)=C(c2ccc(Cl)cc2)C1 [Venetoclax] + CN(C)CCCOc1ccc(-c2ccc3ncc4c(c3c2)n(C2CCOCC2)c(=O)n4C)cn1 [AZD0156] (first compound max 1 µM, 7x7, partner max 1 µM) ?
a: satisfied

q: Bliss excess >= -0.006 for CN(CCO)CC[C@H](CSc1ccccc1)Nc1ccc(S(=O)(=O)NC(=O)c2ccc(N3CCC([C@@H](O)c4ccccc4-c4ccc(Cl)cc4)CC3)cc2)cc1S(=O)(=O)C(F)(F)F [AZD4320] + C[C@@H]1COCCN1C2=NC(=NC(=C2)C3(CC3)[S@](=N)(=O)C)C4=C5C=CNC5=NC=C4 [AZD6738] (first compound max 1 µM, 7x7, partner max 10 µM) ?
a: satisfied

q: Bliss excess >= -0.006 for O=C(c1cc(Cc2n[nH]c(=O)c3ccccc23)ccc1F)N1CCN(C(=O)C2CC2)CC1 [Olaparib] + COc1nnc2ccc(N3CCC(c4ccc(OCCN5CCN(C)C(=O)[C@H]5C)cc4)CC3)nn12 [AZD5153] (first compound max 10 µM, 7x7, partner max 1 µM) ?
a: not satisfied

q: Bliss excess >= -0.006 for NC1(C(=O)N[C@@H](CCO)c2ccc(Cl)cc2)CCN(c2ncnc3[nH]ccc23)CC1 [Capivasertib] + CC(=O)c1c(C)c2cnc(Nc3ccc(N4CCNCC4)cn3)nc2n(C2CCCC2)c1=O [Palbociclib] (first compound max 10 µM, 7x7, partner max 10 µM) ?
a: satisfied

q: Bliss excess >= -0.006 for C=CCn1c(=O)c2cnc(Nc3ccc(N4CCN(C)CC4)cc3)nc2n1-c1cccc(C(C)(C)O)n1 [AZD1775] + O=C(c1cc(Cc2n[nH]c(=O)c3ccccc23)ccc1F)N1CCN(C(=O)C2CC2)CC1 [Olaparib] (first compound max 1 µM, partner max 10 µM) ?
a: not satisfied

====

# Tested on: LNZTA3WT4 (Low Grade Glioma)
# run.description: Bliss excess, mean over the matrix (fraction); higher = more synergy
Please respond with reported Bliss excess for every item in the list.

q: # query: Bliss excess | item CN(C)CCCOc1ccc(-c2ccc3ncc4c(c3c2)n(C2CCOCC2)c(=O)n4C)cn1 [AZD0156] + CCN(CCO)CCCOc1ccc2c(Nc3cc(CC(=O)Nc4cccc(F)c4)[nH]n3)ncnc2c1 [AZD2811] (first compound max 1 µM, 7x7, partner max 1 µM) | system: LNZTA3WT4 (Low Grade Glioma)
a: -0.0162

q: # query: Bliss excess | item CN(C)CCCOc1ccc(-c2ccc3ncc4c(c3c2)n(C2CCOCC2)c(=O)n4C)cn1 [AZD0156] + C=CCn1c(=O)c2cnc(Nc3ccc(N4CCN(C)CC4)cc3)nc2n1-c1cccc(C(C)(C)O)n1 [AZD1775] (first compound max 1 µM, partner max 1 µM) | system: LNZTA3WT4 (Low Grade Glioma)
a: -0.0561

====

# System: YAPC (Pancreatic Carcinoma)
# run.description: combination Emax (second highest fraction inhibited in the dose matrix, 72 h); higher = more inhibition; extreme values may be limits of the assay
result.type: combination Emax
Give the figure only, with no unit attached.

q: Fill in: combination Emax of C[C@@H](c1ccc2nccn2c1)n1nnc2ncc(-c3cnn(C)c3)nc21 [Savolitinib] + Cc1c2c(nn1C)CSCc1cc(n(C)n1)CSc1cc(c3ccccc3c1)OCCCc1c(C(=O)O)n(C)c3c-2c(Cl)ccc13 [AZD5991] (first compound max 1 µM, 7x7, partner max 1 µM) is ___
a: 0.11

q: Fill in: combination Emax of Cc1cc2ncnn2cc1Nc1ncc2c(n1)n(C1CCOCC1)c(=O)n2C [AZD7648] + CN(C)CCCOc1ccc(-c2ccc3ncc4c(c3c2)n(C2CCOCC2)c(=O)n4C)cn1 [AZD0156] (first compound max 10 µM, 7x7, partner max 1 µM) is ___
a: 0.209

====

Please respond with reported combination Emax for every item in the list.
# Tested on: HeLa (Cervical Carcinoma)
# run.description: combination Emax (second highest fraction inhibited in the dose matrix, 72 h); higher = more inhibition; extreme values may be limits of the assay
Give the figure only, with no unit attached.

q: Fill in: combination Emax of Cc1c2c(nn1C)CSCc1cc(n(C)n1)CSc1cc(c3ccccc3c1)OCCCc1c(C(=O)O)n(C)c3c-2c(Cl)ccc13 [AZD5991] + C[C@@H](Nc1cc(F)cc(F)c1)c1cc(C(=O)N(C)C)cc2c(=O)cc(N3CCOCC3)oc12 [AZD8186] (first compound max 1 µM, 7x7, partner max 3 µM) is ___
a: 0.614

q: Fill in: combination Emax of COc1nnc2ccc(N3CCC(c4ccc(OCCN5CCN(C)C(=O)[C@H]5C)cc4)CC3)nn12 [AZD5153] + C=CCn1c(=O)c2cnc(Nc3ccc(N4CCN(C)CC4)cc3)nc2n1-c1cccc(C(C)(C)O)n1 [AZD1775] (first compound max 1 µM, partner max 1 µM) is ___
a: 0.54

q: Fill in: combination Emax of CC1(C)CCC(CN2CCN(c3ccc(C(=O)NS(=O)(=O)c4ccc(NCC5CCOCC5)c([N+](=O)[O-])c4)c(Oc4cnc5[nH]ccc5c4)c3)CC2)=C(c2ccc(Cl)cc2)C1 [Venetoclax] + C1CN(CCC1(C(=O)N[C@@H](CCO)C2=CC=C(C=C2)Cl)N)C3=NC=NC4=C3C=CN4 [Capivasertib] (first compound max 1 µM, 7x7, partner max 3 µM) is ___
a: 0.22
